- Test system: OVCAR-3 ovarian
- TEST PROTOCOL: NCI tumour cell line growth inhibition, 48 h
PROPERTY MEASURED: TGI

Lab entry: OVCAR-3 ovarian assay, compound CC(C)CCCC(C)[C@H]1CCC2[C@@H]3CCC4Cc5nc6c(nc5C[C@]4(C)C3CC[C@@]21C)CC1CC[C@@H]2C(CC[C@@]3(C)C2CC[C@@H]3O)[C@@]1(C)C6 (some centres undefined) , TGI = > 100 µM

Lab entry: OVCAR-3 ovarian assay, compound CCOC(=O)n1c2ccccc2c(=O)n1CCO , TGI = > 100 µM

Lab entry: OVCAR-3 ovarian assay, compound COc1ncc2cc1NS(=O)(=O)c1cccc(c1)C(=O)NCC1=CC=C(S1)c1ncnc3c1SC2=C3C , TGI = 0.431 µM

Lab entry: OVCAR-3 ovarian assay, compound O=C(Nc1ccc(Cl)c(Cl)c1)C1C(=O)N(c2ccc(Cl)c(Cl)c2)C(=O)/C1=N\O (centres undefined) , TGI = > 100 µM

Lab entry: OVCAR-3 ovarian assay, compound Cc1cc(OC(=O)c2c(C)cc(OC(=O)c3c(C)cc(O)cc3O)cc2O)cc(O)c1C(=O)O , TGI = > 100 µM

Lab entry: OVCAR-3 ovarian assay, compound CCN(CCNc1ccc(C)c2sc3cc(Cl)ccc3c(=O)c12)CC(C)(C)O , TGI = 62.9 µM

Lab entry: OVCAR-3 ovarian assay, compound Cc1cc(NS(=O)(=O)c2ccc(NC(=O)c3ccc4nc5ccccc5c(Nc5ccc(S(=O)(=O)Nc6cc(C)on6)cc5)c4c3)cc2)no1 , TGI = > 50 µM

Lab entry: OVCAR-3 ovarian assay, compound CCOc1ccc(/C=C2/C(=O)N=C(N)N=C2N)cc1OCC , TGI = > 100 µM

Lab entry: OVCAR-3 ovarian assay, compound Cc1cn2c(/C=C3/C(=O)Nc4ccc(C(=O)O)cc43)c(C)nc2s1 , TGI = > 100 µM

###

- Test system: MALME-3M melanoma
- TEST PROTOCOL: NCI tumour cell line growth inhibition, 48 h; in the data active = GI50 below about 0.43 µM; inactive = the rest
Your response should consist of one outcome taken from YES (active), NO (inactive)

[[record]]
entry_smiles = "Cc1n(Cc2ccc3ccccc3n2)cc[n+]1Cc1ccc2ccccc2c1"
classification = "YES"

[[record]]
entry_smiles = "Cc1cn2c(/C=C3/C(=O)Nc4ccc(C(=O)O)cc43)c(C)nc2s1"
classification = "NO"

[[record]]
entry_smiles = "CCN(CCNc1ccc(C)c2sc3cc(Cl)ccc3c(=O)c12)CC(C)(C)O"
classification = "NO"

[[record]]
entry_smiles = "Cc1ccc(O)cc1Nc1ccnc2cc(-c3ccccn3)ccc12"
classification = "NO"

[[record]]
entry_smiles = "CN1CCOCCOCCOc2ccccc2NC(=O)c2nc(cnc2N)-c2ccc(cc2)S1(=O)=O"
classification = "NO"


For Oc1ccc(-c2[nH]c3ccccc3c2-c2nc3ccccc3o2)cc1 , which call appears in the assay record?
NO

###

- Tested on: CAKI-1 renal
- TEST PROTOCOL: NCI tumour cell line growth inhibition, 48 h
Readings of TGI for the listed compounds

As a guide, the following entries are already answered.
[[record]]
compound = "COC(=O)c1ccc2c(c1)C(=O)c1c-2n(CCCCl)c(=O)c2cc(OC)c(OC)cc12"
readout_value = "> 100 µM"

[[record]]
compound = "COc1ncc2cc1NS(=O)(=O)c1cccc(c1)C(=O)NCC1=CC=C(S1)c1ncnc3c1SC2=C3C"
readout_value = "10.3 µM"

[[record]]
compound = "CN(c1ccc(NC(=O)NCCN2CCOCC2)cc1)c1ccnc(Nc2ccc(CS(C)(=O)=O)cc2)n1"
readout_value = "> 25 µM"


Input CC(C)(C)c1cc(C(OCCl)(C(F)(F)F)C(F)(F)F)c2c(c1)C(C(F)(F)F)(C(F)(F)F)OC21c2ccccc2C(=O)c2ccccc21 . Output TGI: > 100 µM

Input COc1cccc2c1[C@H]1OC(=O)NC1CCCCC2 (stereo not given in full) . Output TGI: > 100 µM

Reference for the values: PubChem BioAssay (NCI)
